# experimentalTarget: WEE1 (Homo sapiens, UniProt P30291+Q96SW2)
# Construct: C-terminal ePL-tagged (DiscoverX, Fremont, CA) full-length WEE1 expression construct; expressed in transfected cells; host or cells: LentiX-HEK293T (Invitrogen), lentiviral transduction; co-expressing GSPT1-GN (G576N, lacking the first 158 amino acids)
# assayDetails: WEE1-ePL degradation assay (LentiX-WEE1-ePL-GSPT1-ND cells, InCELL Hunter luminescence, 4 h)
# Type: cell-based
# protocolConditions: 293T-LentiX WEE1-ePL cells, read-out: 293T-LentiX WEE1-ePL Degradation 4 hr (EC50)
DC50 for assorted compounds
quantityKind: DC50

[[record]]
compound = "[2H]c1nc2ccccc2cc1CN1CCC(Oc2ccc3c(c2)CN(C2CCC(=O)NC2=O)C3=O)C1 (stereo not shown)"
result = "8.41 nM"

[[record]]
compound = "CC(C)(O)c1cc(CN2CC[C@H](Oc3ccc4c(c3)CN([C@H]3CCC(=O)NC3=O)C4=O)C2)cc2ccc(C3CCOCC3)nc12"
result = "6.72 nM"

[[record]]
compound = "Cn1cc2cc(CN3CC[C@H](Oc4ccc5c(c4)CN(C4CCC(=O)NC4=O)C5=O)C3)ccc2n1 (stereo partly shown)"
result = "40.5 nM"

[[record]]
compound = "O=C1CCC(N2Cc3cc(O[C@H]4CCN(Cc5ccc6nc(CC(F)F)ccc6c5)C4)ccc3C2=O)C(=O)N1 (stereo partly shown)"
result = "33.4 nM"


----------
# experimentalTarget: WEE1 (Homo sapiens, UniProt P30291+Q96SW2)
# Construct: C-terminal ePL-tagged (DiscoverX, Fremont, CA) full-length WEE1 expression construct; expressed in transfected cells; host or cells: LentiX-HEK293T (Invitrogen), lentiviral transduction; co-expressing GSPT1-GN (G576N, lacking the first 158 amino acids)
# assayDetails: WEE1-ePL degradation assay (LentiX-WEE1-ePL-GSPT1-ND cells, InCELL Hunter luminescence, 4 h)
# Format: cell-based
# protocolConditions: 293T-LentiX WEE1-ePL cells, lower limit of the fit (0 = luciferase inhibitor, Ymax = DMSO control)
quantityKind: 293T-LentiX WEE1-ePL Degradation 4 hr (Ymin)

[[record]]
compound = "O=C1CCC(N2Cc3cc(O[C@H]4CCN(Cc5cc6ccccc6cn5)C4)ccc3C2=O)C(=O)N1 (some centres unmarked)"
quantitativeresult = 30.345

[[record]]
compound = "O=C1CCC(N2Cc3cc(O[C@H]4CCN(Cc5cc6c(cn5)OCCC6)C4)ccc3C2=O)C(=O)N1 (some centres unmarked)"
quantitativeresult = 33

[[record]]
compound = "O=C1CCC(N2Cc3cc(O[C@H]4CCN(Cc5ccc6nc(C7CC7)ccc6c5)C4)ccc3C2=O)C(=O)N1 (some centres unmarked)"
quantitativeresult = 34.33

[[record]]
compound = "COCc1ccc2cc(CN3CC[C@H](Oc4ccc5c(c4)CN(C4CCC(=O)NC4=O)C5=O)C3)ccc2n1 (some centres unmarked)"
quantitativeresult = 30.5

[[record]]
compound = "O=C1CCC(N2Cc3cc(O[C@H]4CCN(Cc5ccc6nc(CO[C@H]7CCOC7)ccc6c5)C4)ccc3C2=O)C(=O)N1 (some centres unmarked)"
quantitativeresult = 33

[[record]]
compound = "Cc1cc(CN2CC[C@H](Oc3ccc4c(c3)CN(C3CCC(=O)NC3=O)C4=O)C2)ccn1 (some centres unmarked)"
quantitativeresult = 39.18

[[record]]
compound = "CNc1ccc2cc(CN3CC[C@H](Oc4ccc5c(c4)CN(C4CCC(=O)NC4=O)C5=O)C3)ccc2n1 (some centres unmarked)"
quantitativeresult = 31.06

[[record]]
compound = "O=C1CCC(N2Cc3cc(O[C@H]4CCN(Cc5ccc6nc(N7CCC7)ccc6c5)C4)ccc3C2=O)C(=O)N1 (some centres unmarked)"
quantitativeresult = 37

[[record]]
compound = "CO[C@H]1C[C@@H](c2ccc3cc(CN4CC[C@H](Oc5ccc6c(c5)CN(C5CCC(=O)NC5=O)C6=O)C4)ccc3n2)C1 (some centres unmarked) [drawing 577]"
quantitativeresult = 28.27

[[record]]
compound = "O=C1CCC(N2Cc3cc(O[C@H]4CCN(Cc5ccc6nc(N7[C@@H]8COC[C@H]7C8)ncc6c5)C4)ccc3C2=O)C(=O)N1 (some centres unmarked)"
quantitativeresult = 38

[[record]]
compound = "O=C1CCC(N2Cc3cc(O[C@H]4CCN(Cc5ccc6nc(N7C[C@H]8COC[C@H]8C7)ncc6c5)C4)ccc3C2=O)C(=O)N1 (some centres unmarked)"
quantitativeresult = 38


----------
DC50 for assorted molecules
# experimentalTarget: WEE1 (Homo sapiens, UniProt P30291+Q96SW2)
# Construct: C-terminal ePL-tagged (DiscoverX, Fremont, CA) full-length WEE1 expression construct; expressed in transfected cells; host or cells: LentiX-HEK293T (Invitrogen), lentiviral transduction; co-expressing GSPT1-GN (G576N, lacking the first 158 amino acids)
# assayDetails: WEE1-ePL degradation assay (LentiX-WEE1-ePL-GSPT1-ND cells, InCELL Hunter luminescence, 4 h)
# Type: cell-based
# protocolConditions: 293T-LentiX WEE1-ePL cells, read-out: 293T-LentiX WEE1-ePL Degradation 4 hr (EC50)
quantityKind: DC50 (nM)

[[record]]
molecule = "O=C1CCC(N2Cc3cc(O[C@H]4CCN(Cc5cc6ccc(F)cc6cn5)C4)ccc3C2=O)C(=O)N1 (stereo partly shown)"
quantitykind = "DC50"
quantitativeresult = 4.93

[[record]]
molecule = "CC(C)(C)c1ccc2cc(CN3CC[C@H](Oc4ccc5c(c4)CN(C4CCC(=O)NC4=O)C5=O)C3)ccc2n1 (stereo partly shown)"
quantitykind = "DC50"
quantitativeresult = 2.8

[[record]]
molecule = "N#Cc1ccc2cc(CN3C[C@H](F)[C@H](Oc4ccc5c(c4)CN(C4CCC(=O)NC4=O)C5=O)C3)ccc2n1 (stereo partly shown)"
quantitykind = "DC50"
quantitativeresult = 13.1

[[record]]
molecule = "COc1ccc2cc(CN3CC[C@H](Oc4ccc5c(c4)CN(C4CCC(=O)NC4=O)C5=O)C3)nnc2c1 (stereo partly shown)"
quantitykind = "DC50"
quantitativeresult = 5.48

[[record]]
molecule = "[2H]c1ccc2cc(CN3CCC(Oc4ccc5c(c4)CN(C4CCC(=O)NC4=O)C5=O)C3)ccc2n1 (stereo not shown)"
quantitykind = "DC50"
quantitativeresult = 4.09

[[record]]
molecule = "O=C1CCC(N2Cc3cc(O[C@H]4CCN(Cc5ccc6nc(NC(=O)C7CCOCC7)ccc6c5)C4)ccc3C2=O)C(=O)N1 (stereo partly shown)"
quantitykind = "DC50"
quantitativeresult = 1.78

[[record]]
molecule = "O=C1CCC(N2Cc3cc(O[C@H]4CCN(Cc5ccc6cccnc6n5)C4)ccc3C2=O)C(=O)N1 (stereo partly shown)"
quantitykind = "DC50"
quantitativeresult = 292

[[record]]
molecule = "CN1CC[C@@H](c2ccc3cc(CN4CC[C@H](Oc5ccc6c(c5)CN(C5CCC(=O)NC5=O)C6=O)C4)ccc3n2)C1 (stereo partly shown)"
quantitykind = "DC50"
quantitativeresult = 67.4

[[record]]
molecule = "COC[C@H]1CC[C@@H](c2ccc3cc(CN4CC[C@H](Oc5ccc6c(c5)CN(C5CCC(=O)NC5=O)C6=O)C4)ccc3n2)CC1 (stereo partly shown)"
quantitykind = "DC50"
quantitativeresult = 1.22

[[record]]
molecule = "N#Cc1ccc2cc(CN3C[C@@H](Oc4ccc5c(c4)CN(C4CCC(=O)NC4=O)C5=O)C(F)(F)C3)ccc2n1 (stereo partly shown)"
quantitykind = "DC50"
quantitativeresult = 20.2

[[record]]
molecule = "O=C1CC[C@H](N2Cc3cc(O[C@H]4CCN(Cc5cc6ccc(C7CCOCC7)nc6cc5F)C4)ccc3C2=O)C(=O)N1"
quantitykind = "DC50"
quantitativeresult = 5.82

[[record]]
molecule = "COc1cc(C)nc2ccc(CN3CC[C@H](Oc4ccc5c(c4)CN(C4CCC(=O)NC4=O)C5=O)C3)cc12 (stereo partly shown)"
quantitykind = "DC50"
quantitativeresult = 26.8

[[record]]
molecule = "COC[C@@H]1CC[C@H](c2ccc3cc(CN4CC[C@H](Oc5ccc6c(c5)CN(C5CCC(=O)NC5=O)C6=O)C4)ccc3n2)C1 (stereo partly shown)"
quantitykind = "DC50"
quantitativeresult = 5.9

[[record]]
molecule = "COC[C@H]1CC[C@H](c2ccc3cc(CN4CC[C@H](Oc5ccc6c(c5)CN(C5CCC(=O)NC5=O)C6=O)C4)ccc3n2)CC1 (stereo partly shown)"
quantitykind = "DC50"
quantitativeresult = 1.57

[[record]]
molecule = "O=C1CCC(N2Cc3cc(O[C@H]4CCN(Cc5ccc6nc([C@H]7CCC[C@@H](O)C7)ccc6c5)C4)ccc3C2=O)C(=O)N1 (stereo partly shown)"
quantitykind = "DC50"
quantitativeresult = 9.66

[[record]]
molecule = "O=C1CC[C@H](N2Cc3cc(O[C@H]4CCN(Cc5ccc6nc([C@@H]7CCOC7)ccc6c5)C4)ccc3C2=O)C(=O)N1"
quantitykind = "DC50"
quantitativeresult = 2.13

[[record]]
molecule = "COC[C@@H]1CCC[C@@H]1c1ccc2cc(CN3CC[C@H](Oc4ccc5c(c4)CN(C4CCC(=O)NC4=O)C5=O)C3)ccc2n1 (stereo partly shown)"
quantitykind = "DC50"
quantitativeresult = 0.334

[[record]]
molecule = "O=C1CCC(N2Cc3cc(O[C@H]4CCN(Cc5ccc6nc(N7C[C@H]8C[C@@H]7CO8)ccc6c5)C4)ccc3C2=O)C(=O)N1 (stereo partly shown)"
quantitykind = "DC50"
quantitativeresult = 5.67

[[record]]
molecule = "Cc1cc(CN2CC[C@H](Oc3ccc4c(c3)CN(C3CCC(=O)NC3=O)C4=O)C2)cnc1C (stereo partly shown)"
quantitykind = "DC50"
quantitativeresult = 25.9

[[record]]
molecule = "COC(C)(C)c1ccc2cc(CN3CC[C@H](Oc4ccc5c(c4)CN(C4CCC(=O)NC4=O)C5=O)C3)ncc2c1 (stereo partly shown)"
quantitykind = "DC50"
quantitativeresult = 1.21

[[record]]
molecule = "CO[C@H]1CC[C@H](c2ccc3cc(CN4CC[C@H](Oc5ccc6c(c5)CN(C5CCC(=O)NC5=O)C6=O)C4)ccc3n2)CC1 (stereo partly shown)"
quantitykind = "DC50"
quantitativeresult = 1.88

[[record]]
molecule = "Nc1cccc(COc2cccc(CN3CC[C@H](Oc4ccc5c(c4)CN(C4CCC(=O)NC4=O)C5=O)C3)c2)c1 (stereo partly shown)"
quantitykind = "DC50"
quantitativeresult = 818

